Entry source: patent US8173645B2

# experimentalTarget: glucokinase (GK), residues 12-465 of the human enzyme (Homo sapiens, UniProt P35557)
# Construct: I.D. No. 1 corresponds to residues 12-465 of glucokinase
# testDescription: Enzymatic glucokinase activity assay (KinaseGlo luminescence, ATP consumption)
# runParameters: GK activation; 5 μM ATP, 5 mM Glucose; Kact = concentration giving 50% of the maximal increase in GK activity; read-out: pKact
# Description: The activity of compounds as glucokinase activators may be assayed in vitro, in vivo or in a cell line. Provided below is an enzymatic glucokinase activity assay. Purified glucokinase may be obtained as follows. […] Recombinant protein may be isolated from cellular extracts by passage over Sepharose Q Fast Flow resin (Pharmacia). […] The purity of GK may be determined on denaturing SDS-PAGE gel. […]
pEC50: −log10 of the molar value.
quantity: pEC50

Entry O=C(c1ccncc1)c1cccc(S(=O)(=O)N2CCN([C@@H](CC3CCCCC3)C(=O)Nc3nccs3)C(=O)C2)c1 , system glucokinase (GK), residues 12-465 of the human enzyme (Homo sapiens, UniProt P35557): what pEC50 was measured?
5.90 to 6.10

Try this compound too: O=C(Nc1ncc(Cl)s1)[C@H](CC1CCOCC1)N1CCN(S(=O)(=O)C2CCCC2)CC1=O
≥ 6.20

Try this compound too: O=C(Nc1nccs1)[C@H](CC1CCCCC1)N1CCN(S(=O)(=O)c2ccc(-n3cccn3)cc2)CC1=O
5.60 to 5.80

Try this compound too: CS(=O)(=O)N1CCN([C@@H](CC2CCCCC2)C(=O)Nc2nccs2)C(=O)C1
5.60 to 5.80

Try this compound too: O=C(Nc1nccs1)[C@H](CC1CCCCC1)N1CCN(S(=O)(=O)c2ccc(OC(F)F)cc2)CC1=O
5.60 to 5.80

Try this compound too: COc1ccc(C)cc1S(=O)(=O)N1CCN([C@@H](CC2CCCCC2)C(=O)Nc2nccs2)C(=O)C1
5.90 to 6.10

Try this compound too: O=C(c1cccc(S(=O)(=O)N2CCN([C@@H](CC3CCCCC3)C(=O)Nc3nccs3)C(=O)C2)c1)c1ccccn1
5.90 to 6.10

---

# experimentalTarget: glucokinase (GK), residues 12-465 of the human enzyme (Homo sapiens)
# Construct: I.D. No. 1 corresponds to residues 12-465 of glucokinase; made in house; host or cells: E. coli DH10b-Tlr
# testDescription: Enzymatic glucokinase activity assay (KinaseGlo luminescence, ATP consumption)
# Type: biochemical
# runParameters: GK activation; 5 μM ATP, 5 mM Glucose; Kact = concentration giving 50% of the maximal increase in GK activity; read-out: pKact
pEC50: −log10 of the molar value.
quantity: pEC50

Example compounds with recorded pEC50:
O=C(Nc1nccs1)[C@H](CC1CCCCC1)N1CCN(S(=O)(=O)c2cc(Cl)ccc2F)CC1=O [Example 185] = ≥ 6.20
Cc1noc(C)c1S(=O)(=O)N1CCN([C@@H](CC2CCCCC2)C(=O)Nc2nccs2)C(=O)C1 [Example 173] = ≤ 5.50
NC(=O)Nc1ccc(S(=O)(=O)N2CCN([C@@H](CC3CCCCC3)C(=O)Nc3nccs3)C(=O)C2)cc1 [Example 64] = ≤ 5.50
O=C(Nc1ncc(Cl)s1)[C@H](CC1CCOCC1)N1CCN(S(=O)(=O)c2cccs2)CC1=O [Example 37] = ≥ 6.20
Cc1nccc(-c2cccc(S(=O)(=O)N3CCN([C@@H](CC4CCCCC4)C(=O)Nc4nccs4)C(=O)C3)c2)n1 [Example 169] = 5.90 to 6.10
CC(=O)Nc1nc(C)c(S(=O)(=O)N2CCN([C@@H](CC3CCCCC3)C(=O)Nc3nccs3)C(=O)C2)s1 [Example 197] = ≤ 5.50
O=C(Nc1ncc(Cl)s1)C(CC1CCCC1)N1CCN(S(=O)(=O)C2CC2)CC1=O (stereo not drawn) [Example 16] = ≥ 6.20
O=C(Nc1nccs1)[C@H](CC1CCCCC1)N1CCN(C(=O)Nc2ccc3ccccc3c2)CC1=O [Example 139] = ≤ 5.50
O=C(Nc1nccs1)[C@H](CC1CCCCC1)N1CCN(S(=O)(=O)c2cccc(Br)c2)CC1=O [Example 232] = ≥ 6.20
O=C(Nc1nccs1)[C@H](CC1CCCCC1)N1CCN(C(=S)NC2CCCCC2)CC1=O [Example 114] = 5.60 to 5.80

Entry Cn1nc(-c2ccc(S(=O)(=O)N3CCN([C@@H](CC4CCCCC4)C(=O)Nc4nccs4)C(=O)C3)s2)cc1C(F)(F)F [Example 175] , system glucokinase (GK), residues 12-465 of the human enzyme (Homo sapiens): what pEC50 was measured?
≤ 5.50

Try this compound too: O=C(Nc1nccs1)[C@H](CC1CCCCC1)N1CCN(S(=O)(=O)CCc2ccc(Cl)cc2)CC1=O [Example 98]
5.90 to 6.10

Try this compound too: O=C(Nc1nccs1)[C@H](CC1CCCCC1)N1CCN(C(=S)NCc2ccccc2)CC1=O [Example 82]
5.60 to 5.80

Try this compound too: O=C(Nc1nccs1)[C@H](CC1CCCCC1)N1CCN(S(=O)(=O)c2cccc3ccccc23)CC1=O [Example 65]
5.60 to 5.80

Try this compound too: O=C(O)c1ccc(S(=O)(=O)N2CCN([C@@H](CC3CCCCC3)C(=O)Nc3nccs3)C(=O)C2)cc1 [Example 91]
≤ 5.50

---

Listed molecules paired with reported Emax
# experimentalTarget: glucokinase (GK), residues 12-465 of the human enzyme (Homo sapiens)
# Construct: I.D. No. 1 corresponds to residues 12-465 of glucokinase; made in house; host or cells: E. coli DH10b-Tlr
# testDescription: Enzymatic glucokinase activity assay (KinaseGlo luminescence, ATP consumption)
# Assay type: biochemical
# runParameters: calculated maximal gain in GK enzyme activity at a saturating concentration of the compound; 5 μM ATP, 5 mM Glucose; read-out: % ACTmax

O=C(Nc1nccs1)[C@H](CC1CCCCC1)N1CCN(S(=O)(=O)c2ccc3c(c2)CCO3)CC1=O [Example 102] = 74.1 to 97%
O=C(Nc1nccs1)[C@H](CC1CCCCC1)N1CCN(C(=S)Nc2cccc3ccccc23)CC1=O [Example 80] = 97.1 to 107%
O=C(Nc1nccs1)[C@H](CC1CCCCC1)N1CCN(C(=S)NCc2cccs2)CC1=O [Example 123] = 108 to 119%
Cc1cc(S(=O)(=O)N2CCN([C@@H](CC3CCCCC3)C(=O)Nc3nccs3)C(=O)C2)c(C)s1 [Example 180] = 108 to 119%
Cc1cc(S(=O)(=O)N2CCN([C@@H](CC3CCCCC3)C(=O)Nc3nccs3)C(=O)C2)c(C)o1 [Example 181] = 108 to 119%

Report Emax for O=C(Nc1nccs1)[C@H](CC1CCCCC1)N1CCN(S(=O)(=O)c2ccc(-c3ccno3)s2)CC1=O [Example 174] please.
≤ 74%

Try this molecule too: O=C(Nc1nccs1)[C@H](CC1CCCCC1)N1CCN(C(=S)Nc2ccc(F)cc2)CC1=O [Example 83]
108 to 119%

---

# experimentalTarget: glucokinase (GK), residues 12-465 of the human enzyme (Homo sapiens, UniProt P35557)
# Construct: I.D. No. 1 corresponds to residues 12-465 of glucokinase
# testDescription: Enzymatic glucokinase activity assay (KinaseGlo luminescence, ATP consumption)
# runParameters: GK activation; 5 μM ATP, 5 mM Glucose; Kact = concentration giving 50% of the maximal increase in GK activity; read-out: pKact
quantity: EC50

O=C(Nc1nccs1)[C@H](CC1CCCCC1)N1CCN(C(=S)Nc2cccc(C(F)(F)F)c2)CC1=O [Example 84] = ≥ 3160 nM
COc1ccc2nc(NC(=O)C(CC3CCOCC3)N3CCN(S(=O)(=O)C4CCCC4)CC3=O)sc2n1 (centres unmarked) [Example 29] = 794 to 1260 nM
O=C(Nc1nccs1)[C@H](CC1CCCCC1)N1CCN(S(=O)(=O)c2ccc(Cl)s2)CC1=O [Example 172] = ≤ 631 nM
O=C(Nc1ncc(F)s1)[C@H](CC1CCOCC1)N1CCN(S(=O)(=O)C2CC2)CC1=O [Example 21] = 1580 to 2510 nM

Please look at the following compound next.
Report EC50 for COc1ccc2nc(NC(=O)C(CC3CCOCC3)N3CCN(S(=O)(=O)C4CC4)CC3=O)sc2n1 (centres unmarked) [Example 26] please.
≥ 3160 nM

---

# experimentalTarget: glucokinase (GK), residues 12-465 of the human enzyme (Homo sapiens)
# Construct: I.D. No. 1 corresponds to residues 12-465 of glucokinase; made in house; host or cells: E. coli DH10b-Tlr
# Sequence (P35557 with tags, fused parts or gaps isoform P35557-2): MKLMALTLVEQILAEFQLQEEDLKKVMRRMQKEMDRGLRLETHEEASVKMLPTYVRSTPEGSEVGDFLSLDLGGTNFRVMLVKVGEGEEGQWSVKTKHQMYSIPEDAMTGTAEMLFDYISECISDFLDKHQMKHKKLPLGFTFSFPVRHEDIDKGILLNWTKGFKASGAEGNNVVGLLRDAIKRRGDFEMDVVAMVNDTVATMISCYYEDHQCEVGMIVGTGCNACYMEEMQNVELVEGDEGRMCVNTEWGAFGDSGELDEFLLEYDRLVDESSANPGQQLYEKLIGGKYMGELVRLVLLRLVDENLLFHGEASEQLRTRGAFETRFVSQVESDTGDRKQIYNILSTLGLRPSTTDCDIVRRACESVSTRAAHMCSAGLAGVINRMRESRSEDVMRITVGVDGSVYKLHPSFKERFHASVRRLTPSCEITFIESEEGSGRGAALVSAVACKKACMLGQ
# testDescription: Enzymatic glucokinase activity assay (KinaseGlo luminescence, ATP consumption)
# Format: biochemical
# runParameters: calculated maximal gain in GK enzyme activity at a saturating concentration of the compound; 5 μM ATP, 5 mM Glucose; read-out: % ACTmax
# From the text: The activity of compounds as glucokinase activators may be assayed in vitro, in vivo or in a cell line. Provided below is an enzymatic glucokinase activity assay. Purified glucokinase may be obtained as follows. […] Recombinant protein may be isolated from cellular extracts by passage over Sepharose Q Fast Flow resin (Pharmacia). […] The purity of GK may be determined on denaturing SDS-PAGE gel. […]
Listed compounds paired with reported Emax

Example compounds with recorded Emax:
CCN(CC)CCCNC(=S)N1CCN([C@@H](CC2CCCCC2)C(=O)Nc2nccs2)C(=O)C1 = 97.1 to 107%
O=C(Nc1ncc(Cl)s1)[C@H](CC1CCOCC1)N1CCN(S(=O)(=O)C2CCCC2)CC1=O = ≥ 119%
O=C(Nc1ncc(Cl)s1)[C@@H](CC1CCOCC1)N1CCN(S(=O)(=O)C2CC2)CC1=O = ≤ 74%
O=C(Nc1ncc(Cl)s1)[C@H](CC1CCOCC1)N1CCN(S(=O)(=O)c2ccc(F)cc2)CC1=O = 97.1 to 107%
O=C(Nc1nccs1)[C@H](CC1CCCCC1)N1CCN(S(=O)(=O)c2ccc3ncsc3c2)CC1=O = 97.1 to 107%
O=C(c1ccncc1)c1cccc(S(=O)(=O)N2CCN([C@@H](CC3CCCCC3)C(=O)Nc3nccs3)C(=O)C2)c1 = 108 to 119%

Report Emax for O=C(Nc1nccs1)[C@H](CC1CCCCC1)N1CCN(S(=O)(=O)c2cc(Cl)c(Cl)cc2Cl)CC1=O please.
≤ 74%

Try this compound too: O=C(Nc1nccs1)[C@H](CC1CCCCC1)N1CCN(S(=O)(=O)c2cccc3nonc23)CC1=O
≥ 119%
